molecular target: recombinant human DPPII (Homo sapiens (Human), UniProt Q9UHL4); experiment: In vitro inhibition assay, dipeptidyl peptidase II; settings: Lys-Pro-AMC substrate, read-out: DPP2
pIC50: −log10 of the molar value.
# pIC50 values compiled below
Property measured: pIC50

INSERT INTO measurements (molecule, modifier, measured_result) VALUES
  ('CC(C)[C@H](N)C(=O)N1CCC[C@H]1C(=O)CO [compound 5298]', '=', 5.38),
  ('N[C@H](C(=O)N1CCC[C@H]1B(O)O)C1CCCCC1 [compound 1797]', '=', 8.68),
  ('NC1(C(=O)N2Cc3ccccc3C2)CCNCC1 [compound 5553]', '=', 6.01),
  ('CC(C)(C)[C@H](N)C(=O)N1Cc2ccc(F)cc2C1 [compound 5322]', '=', 4.43),
  ('CN(C)C(=O)C[C@H](N)C(=O)N1Cc2ccc(F)cc2C1 [compound 5317]', '=', 4.66),
  ('CC(C)(C)[C@H](N)C(=O)N1CCC[C@H]1C#N [compound 9987]', '<', 4.00),
  ('CC[C@@H](C)[C@H](N)C(=O)N1Cc2ccccc2[C@H]1B(O)O [1049 C]', '=', 7.02),
  ('N[C@H](C(=O)N1Cc2ccc(F)cc2C1)C1CCCCC1 [compound 5311]', '=', 4.20),
  ('CC(C)[C@@H](C(=O)N1CCC[C@H]1B(O)O)N(C)C [2504 C]', '=', 5.00),
  ('O=C([C@@H]1CCCCN1)N1Cc2ccc(F)cc2C1 [compound 5323]', '<', 4.00);

* * *

target: recombinant human DPP8 (Homo sapiens (Human)); assay: In vitro inhibition assay, dipeptidyl peptidase 8; conditions: recombinant human DPP8, Gly-Pro-AMC substrate
Sequence (Q6V1X1 whole entry): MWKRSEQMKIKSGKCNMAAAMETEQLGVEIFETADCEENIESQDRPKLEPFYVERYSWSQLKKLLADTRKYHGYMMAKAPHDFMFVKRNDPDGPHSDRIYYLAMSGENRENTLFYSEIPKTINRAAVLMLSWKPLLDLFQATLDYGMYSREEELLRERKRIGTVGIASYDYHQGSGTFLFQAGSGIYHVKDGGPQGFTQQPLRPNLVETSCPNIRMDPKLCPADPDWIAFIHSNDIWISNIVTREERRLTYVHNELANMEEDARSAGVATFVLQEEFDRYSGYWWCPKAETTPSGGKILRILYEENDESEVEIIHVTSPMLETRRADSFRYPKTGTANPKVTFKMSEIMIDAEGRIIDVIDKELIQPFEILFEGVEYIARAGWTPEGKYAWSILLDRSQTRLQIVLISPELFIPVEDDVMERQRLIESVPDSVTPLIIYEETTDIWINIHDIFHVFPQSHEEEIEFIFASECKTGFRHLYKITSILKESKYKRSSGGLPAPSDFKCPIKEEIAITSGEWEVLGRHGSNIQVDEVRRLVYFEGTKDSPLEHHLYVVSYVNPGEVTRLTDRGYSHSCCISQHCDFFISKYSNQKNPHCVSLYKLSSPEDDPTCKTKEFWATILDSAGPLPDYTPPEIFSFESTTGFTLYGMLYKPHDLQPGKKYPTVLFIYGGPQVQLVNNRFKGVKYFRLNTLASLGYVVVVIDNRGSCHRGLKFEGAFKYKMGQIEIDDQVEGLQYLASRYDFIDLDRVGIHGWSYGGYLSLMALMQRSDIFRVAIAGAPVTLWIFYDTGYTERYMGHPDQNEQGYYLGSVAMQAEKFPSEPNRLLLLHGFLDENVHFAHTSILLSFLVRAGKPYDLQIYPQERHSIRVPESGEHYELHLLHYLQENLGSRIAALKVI
Property measured: IC50 (µM)

INSERT INTO assay_data (structure_as_smiles, property_measured, modifier, measured_result) VALUES
  ('NC(=O)C[C@H](N)C(=O)N1Cc2ccc(F)cc2C1', 'IC50', '=', 4.11),
  ('N[C@H](C(=O)N1Cc2ccc(F)cc2C1)C1CCCCC1', 'IC50', '=', 81),
  ('NC1(C(=O)N2Cc3ccccc3C2)CCNCC1', 'IC50', '>', 100),
  ('NC1(C(=O)N2CCSC2)CCNCC1', 'IC50', '>', 100),
  ('O=C([C@@H]1CCCCN1)N1Cc2ccc(F)cc2C1', 'IC50', '=', 0.862),
  ('NCCCC[C@H](N)C(=O)N1Cc2ccc(F)cc2C1', 'IC50', '=', 0.123),
  ('NC1(C(=O)N2Cc3ccc(F)cc3C2)CCNCC1', 'IC50', '>', 100);

* * *

biological target: recombinant human DPPIV (Homo sapiens (Human)); assay: In vitro inhibition assay, dipeptidyl peptidase IV; conditions: Gly-Pro-AMC substrate, read-out: DPP4
# IC50 values compiled below
Property measured: IC50 (nM)

INSERT INTO assay_data (structure_as_smiles, property_measured, unit_spec, measured_result) VALUES
  ('CC[C@@H](C)[C@H](N)C(=O)N1CCC[C@H]1B(O)O', 'IC50', 'nM', 2),
  ('CN(C)C(=O)C[C@H](N)C(=O)N1Cc2ccc(F)cc2C1', 'IC50', 'nM', 54800),
  ('N[C@H](C(=O)N1Cc2ccccc2C1)C1CCCCC1', 'IC50', 'nM', 1380),
  ('N[C@@H](Cc1ccccc1)C(=O)N1CCC[C@H]1B(O)O', 'IC50', 'nM', 2);

* * *

# IC50 values compiled below
target: recombinant human DPPII (Homo sapiens (Human), UniProt Q9UHL4); test: In vitro inhibition assay, dipeptidyl peptidase II; details: Lys-Pro-AMC substrate, read-out: DPP2
Property measured: IC50 (µM)

INSERT INTO assay_data (structure_as_smiles, modifier, measured_result) VALUES
  ('CN(CB(O)O)C(=O)[C@@H](N)CCC(=O)O', '=', 1.7),
  ('NC1(C(=O)N2Cc3ccc(F)cc3C2)CCNCC1', '>', 100),
  ('CC(C)C[C@H](N)C(=O)N1CCC[C@H]1B(O)O', '=', 0.001),
  ('CC(C)[C@H](N)C(=O)N1C[C@H](O)C[C@H]1B(O)O', '=', 6.4),
  ('CC(C)[C@H](N)C(=O)N1Cc2ccc(F)cc2C1', '=', 44.9);

* * *

molecular target: recombinant human DPPIV (Homo sapiens (Human), UniProt P27487); assay: In vitro inhibition assay, dipeptidyl peptidase IV; format: biochemical; conditions: Gly-Pro-AMC substrate, read-out: DPP4
Sequence (P27487 whole entry): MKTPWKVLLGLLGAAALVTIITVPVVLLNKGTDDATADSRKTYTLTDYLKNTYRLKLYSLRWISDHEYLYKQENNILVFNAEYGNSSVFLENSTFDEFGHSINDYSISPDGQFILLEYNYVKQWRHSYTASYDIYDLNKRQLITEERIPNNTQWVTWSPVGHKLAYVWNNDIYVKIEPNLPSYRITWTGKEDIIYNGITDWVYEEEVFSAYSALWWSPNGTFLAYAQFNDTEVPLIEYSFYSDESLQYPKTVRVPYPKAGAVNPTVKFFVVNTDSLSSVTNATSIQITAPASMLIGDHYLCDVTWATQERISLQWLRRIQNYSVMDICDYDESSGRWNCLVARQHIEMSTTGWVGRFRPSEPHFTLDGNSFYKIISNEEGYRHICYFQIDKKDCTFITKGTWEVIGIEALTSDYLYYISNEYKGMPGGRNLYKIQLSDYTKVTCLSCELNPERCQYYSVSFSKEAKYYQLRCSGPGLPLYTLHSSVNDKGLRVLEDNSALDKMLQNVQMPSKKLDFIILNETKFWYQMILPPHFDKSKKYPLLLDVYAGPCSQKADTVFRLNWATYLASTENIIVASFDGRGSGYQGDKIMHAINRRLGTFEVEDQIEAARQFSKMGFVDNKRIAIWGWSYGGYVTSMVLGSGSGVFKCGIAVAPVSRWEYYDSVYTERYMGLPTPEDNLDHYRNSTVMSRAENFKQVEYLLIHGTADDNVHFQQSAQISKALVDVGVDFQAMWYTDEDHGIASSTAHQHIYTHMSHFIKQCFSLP
pIC50: −log10 of the molar value.
# pIC50 values compiled below
Property measured: pIC50

INSERT INTO measurements (structure_as_smiles, property_measured, modifier, measured_result) VALUES
  ('CC[C@H](C)[C@H](N)C(=O)N1CCC[C@H]1B(O)O', 'pIC50', '=', 8.92),
  ('NCCCC[C@H](N)C(=O)N1CCC[C@H]1B(O)O', 'pIC50', '=', 8.89),
  ('N[C@H](C(=O)N1Cc2ccc(F)cc2C1)C1CCCCC1', 'pIC50', '<', 4.00),
  ('CC(C)[C@H](N)C(=O)N1C[C@@H](O)C[C@H]1B(O)O', 'pIC50', '=', 8.05),
  ('NC1(C(=O)N2Cc3ccccc3C2)CCNCC1', 'pIC50', '<', 4.00);

* * *

target: recombinant human DPP9 (Homo sapiens (Human), UniProt Q86TI2); experiment: In vitro inhibition assay, dipeptidyl peptidase 9; settings: recombinant human DPP9, Gly-Pro-AMC substrate
Sequence (Q86TI2 whole entry): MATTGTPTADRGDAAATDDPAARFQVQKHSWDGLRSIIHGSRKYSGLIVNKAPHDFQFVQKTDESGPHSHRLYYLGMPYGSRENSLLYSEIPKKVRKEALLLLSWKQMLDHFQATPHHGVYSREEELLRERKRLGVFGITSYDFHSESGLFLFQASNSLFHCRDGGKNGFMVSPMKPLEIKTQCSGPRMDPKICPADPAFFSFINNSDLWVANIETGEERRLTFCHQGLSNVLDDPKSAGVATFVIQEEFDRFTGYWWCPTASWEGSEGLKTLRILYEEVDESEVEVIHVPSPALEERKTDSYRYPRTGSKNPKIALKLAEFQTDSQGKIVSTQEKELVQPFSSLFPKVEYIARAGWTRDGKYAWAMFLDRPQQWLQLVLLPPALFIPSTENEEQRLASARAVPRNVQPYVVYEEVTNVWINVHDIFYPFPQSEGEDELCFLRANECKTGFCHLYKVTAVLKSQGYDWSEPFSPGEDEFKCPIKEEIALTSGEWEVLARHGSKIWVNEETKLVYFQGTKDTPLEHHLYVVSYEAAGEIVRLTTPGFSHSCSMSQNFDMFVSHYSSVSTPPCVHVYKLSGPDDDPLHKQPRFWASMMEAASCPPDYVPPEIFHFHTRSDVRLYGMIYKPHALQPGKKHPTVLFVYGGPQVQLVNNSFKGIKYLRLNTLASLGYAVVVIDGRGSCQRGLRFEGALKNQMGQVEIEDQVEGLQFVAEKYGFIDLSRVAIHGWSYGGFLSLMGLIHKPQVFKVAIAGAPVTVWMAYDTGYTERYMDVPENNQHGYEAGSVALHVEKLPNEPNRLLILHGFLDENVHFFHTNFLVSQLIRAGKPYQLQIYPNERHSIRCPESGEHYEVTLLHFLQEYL
pIC50: −log10 of the molar value.
# pIC50 values compiled below
Property measured: pIC50

INSERT INTO results (structure_as_smiles, property_measured, measured_result) VALUES
  ('O=C([C@@H]1CCCCN1)N1Cc2ccc(F)cc2C1', 'pIC50', 6.52),
  ('NC1(C(=O)N2Cc3ccc(F)cc3C2)CCNCC1', 'pIC50', '< 4.00'),
  ('NC1(C(=O)N2CCSC2)CCNCC1', 'pIC50', '< 4.00');

* * *

# IC50 values compiled below
biological target: recombinant human FAP (Homo sapiens (Human), UniProt Q12884); test: In vitro inhibition assay, fibroblast activation protein; details: Z-Gly-Pro-AMC substrate
Sequence (Q12884 whole entry): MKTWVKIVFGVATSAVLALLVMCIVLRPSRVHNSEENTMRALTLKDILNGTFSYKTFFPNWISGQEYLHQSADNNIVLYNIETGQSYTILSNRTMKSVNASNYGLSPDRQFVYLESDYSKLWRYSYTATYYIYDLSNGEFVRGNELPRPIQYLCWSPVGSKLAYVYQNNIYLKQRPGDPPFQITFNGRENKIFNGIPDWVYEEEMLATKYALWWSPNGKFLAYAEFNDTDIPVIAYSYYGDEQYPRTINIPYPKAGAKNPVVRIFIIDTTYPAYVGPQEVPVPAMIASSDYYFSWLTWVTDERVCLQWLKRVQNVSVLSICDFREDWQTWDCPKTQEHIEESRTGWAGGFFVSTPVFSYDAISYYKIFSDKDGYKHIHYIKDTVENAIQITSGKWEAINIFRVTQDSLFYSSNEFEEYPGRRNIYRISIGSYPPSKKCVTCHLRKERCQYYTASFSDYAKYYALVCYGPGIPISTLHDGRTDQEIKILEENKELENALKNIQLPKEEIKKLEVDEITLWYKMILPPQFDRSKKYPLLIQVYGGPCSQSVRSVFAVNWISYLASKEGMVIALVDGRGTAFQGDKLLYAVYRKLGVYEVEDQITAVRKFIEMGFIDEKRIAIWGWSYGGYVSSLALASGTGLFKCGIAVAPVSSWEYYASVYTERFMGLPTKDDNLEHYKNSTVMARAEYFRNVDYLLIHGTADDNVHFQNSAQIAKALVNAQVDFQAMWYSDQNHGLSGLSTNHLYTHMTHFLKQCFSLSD
Property measured: IC50

INSERT INTO measurements (compound, measured_result) VALUES
  ('CN(CB(O)O)C(=O)[C@@H](N)CCC(=O)O', '11 µM'),
  ('CN(C)C(=O)C[C@H](N)C(=O)N1Cc2ccc(F)cc2C1', '> 100 µM'),
  ('C[C@H](N)C(=S)N1CCC[C@H]1B(O)O', '0.13 µM'),
  ('NC1(C(=O)N2CCSC2)CCNCC1', '> 100 µM'),
  ('NC1(C(=O)N2Cc3ccc(F)cc3C2)CCNCC1', '41.1 µM'),
  ('NC(=O)C[C@H](N)C(=O)N1Cc2ccc(F)cc2C1', '> 100 µM'),
  ('CC[C@@H](C)C(N)C(=O)N1Cc2ccc(F)cc2C1 (stereo partly shown) [compound 5291, reference compound]', '> 100 µM'),
  ('CC(C)(C)[C@H](N)C(=O)N1Cc2ccc(F)cc2C1', '> 100 µM'),
  ('CC(C)[C@H](N)C(=O)N1CCC[C@H]1C(=O)CO', '> 100 µM'),
  ('CC(C)C[C@H](N)C(=O)N1CCC[C@H]1B(O)O', '0.15 µM'),
  ('N[C@H](C(=O)N1Cc2ccc(F)cc2C1)C1CCCCC1', '> 100 µM'),
  ('CC(C)[C@H](N)C(=O)N1Cc2ccc(F)cc2C1', '> 100 µM'),
  ('O=C([C@@H]1CCCCN1)N1Cc2ccc(F)cc2C1', '> 100 µM'),
  ('NC1(C(=O)N2Cc3ccccc3C2)CCNCC1', '> 100 µM'),
  ('NCCCC[C@H](N)C(=O)N1Cc2ccc(F)cc2C1', '> 100 µM'),
  ('N[C@H](C(=O)N1Cc2ccc(F)cc2C1)C1CCCC1', '> 100 µM');

* * *

target: recombinant human DPPIV (Homo sapiens (Human), UniProt P27487); experiment: In vitro inhibition assay, dipeptidyl peptidase IV; conditions: Gly-Pro-AMC substrate, read-out: DPP4
# IC50 values compiled below
Property measured: IC50 (µM)

INSERT INTO measurements (structure_as_smiles, property_measured, modifier, measured_result) VALUES
  ('N[C@H](C(=O)N1CCC[C@H]1B(O)O)C1CCCCC1', 'IC50', '=', 0.0012),
  ('CC(C)[C@H](N)C(=O)N1C[C@H](O)C[C@H]1B(O)O', 'IC50', '=', 0.002),
  ('O=C([C@@H]1CCCCN1)N1Cc2ccc(F)cc2C1', 'IC50', '=', 60.3),
  ('NC(=O)C[C@H](N)C(=O)N1Cc2ccc(F)cc2C1', 'IC50', '>', 100),
  ('NC1(C(=O)N2CCSC2)CCNCC1', 'IC50', '>', 100),
  ('NCCCC[C@H](N)C(=O)N1Cc2ccc(F)cc2C1', 'IC50', '>', 100);
